system: 41M; assay: Cytotoxic activity in a panel of Human ovarian tumor 41M cell line after 96h of drug exposure; format: functional, cell-based
pIC50: −log10 of the molar value.
quantityName: pIC50

sequencetext=CISPLATIN assayvalue=6.27

---

test system: SK-OV-3; assay: Cytotoxic activity in a panel of Human ovarian tumor SKOV-3 cell line after 96h of drug exposure; type: functional, cell-based
pIC50: −log10 of the molar value.
quantityName: pIC50

sequencetext=CISPLATIN quantityname=pIC50 assayvalue=5.10
